System: SGK-1 dependent phosphorylation of GSK3beta in U2OS cells
Test: SGK-1 dependent phosphorylation of GSK3beta in U2OS cells overexpressing recombinant SGK-1 and GSK3beta
Assay type: cell-based, human
Conditions: U2OS cells, 6 h incubation, ratio of phosphorylated GSK3beta to total GSK3beta; read-out: IC50 values for inhibition of SGK-1 dependent phosphorylation of GSK3beta in U2OS cells
MEASURED ATTRIBUTE: IC50 (nM)
Lab book: enter the figure in nM, no units written.

Some solved entries appear below for comparison.
# COMPOUND, MEASURED ATTRIBUTE, U, NUMBER
records = [
    ("Cc1nc(-c2ccc(NS(=O)(=O)C3=C(Cl)SCC(Cl)=C3)cc2)nc2[nH]nc(N)c12", "IC50", "nM", 520),
    ("COc1ccc(Cl)c(S(=O)(=O)Nc2ccc(-c3nc(OC4CCC(O)CC4)c4c(C)n[nH]c4n3)cc2)c1 (stereo not shown)", "IC50", "nM", 380),
    ("O=S(=O)(Nc1ccc(-c2nc(N3CCNCC3)c3cn[nH]c3n2)cc1)c1cccc(Cl)c1Cl", "IC50", "nM", 870),
]

Attention now shifts to the item below.
Input: Find the measured IC50: item COc1ccc(C#N)c(S(=O)(=O)Nc2ccc(-c3nc(OCC(C)C)c4c(N)n[nH]c4n3)cc2)c1 , target or system SGK-1 dependent phosphorylation of GSK3beta in U2OS cells.
Output: 190

----------
Overview of recorded pIC50 for various molecules
Tested on: SGK-1 dependent phosphorylation of GSK3beta in U2OS cells
Assay: SGK-1 dependent phosphorylation of GSK3beta in U2OS cells overexpressing recombinant SGK-1 and GSK3beta
Format: cell-based, human
Details: U2OS cells, 6 h incubation, ratio of phosphorylated GSK3beta to total GSK3beta; read-out: IC50 values for inhibition of SGK-1 dependent phosphorylation of GSK3beta in U2OS cells
pIC50 here is simply -log10 of the concentration when that concentration is written in mol/L.

Input: Entry under review: Nc1n[nH]c2nc(-c3ccc(NS(=O)(=O)c4cccc(Cl)c4F)cc3)ncc12 . Reported pIC50?
Output: 6.28

Input: Again, but for CC(C)COc1nc(-c2ccc(NS(=O)(=O)c3cccc(Cl)c3F)cc2)nc2[nH]nc(N)c12
Output: 6.37

Input: Now try Cc1n[nH]c2nc(-c3ccc(NS(=O)(=O)c4cc(Cl)ccc4C#N)cc3)nc(OC3CCNCC3F)c12 (centres unmarked) .
Output: 6.39

Input: Now give it for Nc1n[nH]c2nc(-c3ccc(NS(=O)(=O)c4cc(Cl)sc4Cl)cc3)ncc12 too.
Output: 6.92

Input: Also Cc1nc(-c2ccc(NS(=O)(=O)c3cc(F)c(F)cc3Cl)cc2)nc2[nH]nc(N)c12 ?
Output: 6.29

Input: # repeat for COCCc1nc(-c2ccc(NS(=O)(=O)c3cc(C)ccc3C#N)cc2)nc2[nH]nc(N)c12
Output: 6.52

Input: What about this molecule? COCCc1nc(-c2ccc(NS(=O)(=O)c3cc(Cl)ccc3F)cc2)nc2[nH]nc(N)c12
Output: 6.17

Input: Check Cc1nc(-c2ccc(NS(=O)(=O)c3cc(Cl)ccc3C#N)cc2)nc2[nH]ncc12 too.
Output: 5.38

----------
Target: recombinant human SGK-1 enzyme (Homo sapiens, UniProt O00141)
Sequence (O00141 whole entry, looked up): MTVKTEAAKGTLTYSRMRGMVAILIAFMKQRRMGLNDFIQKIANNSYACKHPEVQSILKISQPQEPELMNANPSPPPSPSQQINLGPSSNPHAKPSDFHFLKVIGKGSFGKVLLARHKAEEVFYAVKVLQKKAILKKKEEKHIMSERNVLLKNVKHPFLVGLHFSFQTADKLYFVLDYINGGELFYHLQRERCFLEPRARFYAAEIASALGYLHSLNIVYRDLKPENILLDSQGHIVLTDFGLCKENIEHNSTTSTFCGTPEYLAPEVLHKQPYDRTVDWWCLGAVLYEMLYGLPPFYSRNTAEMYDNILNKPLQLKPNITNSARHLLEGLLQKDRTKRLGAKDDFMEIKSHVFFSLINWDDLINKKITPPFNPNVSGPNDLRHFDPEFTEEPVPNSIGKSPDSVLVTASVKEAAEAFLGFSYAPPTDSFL
Test: Enzymatic activity assay: SGK-1 substrate peptide phosphorylation (Caliper lab-chip mobility shift)
Format: biochemical
Settings: peptide substrate 1 μM, ATP 10 μM, 60 min at 37° C., read-out: IC50 values for inhibition of SGK-1 enzymatic activity
Experimental: In one of the cellular assays, the SGK-1 dependent phosphorylation of glycogen synthase kinase 3beta (GSK3beta) in U2OS cells was measured, in another one, a functional electrophysiological assay, the SGK-1 dependent activation of epithelial Na^+ channel (ENaC) currents in A6 cell monolayers, and in another one chondrocyte hypertrophic differentiation in mouse chondrogenic ATDC5 cells. A) Enzymatic Activity Assay […]
Using IC50 as the sorting value, the categories are low-valued: < 5 nM; mid-valued: ≥ 5 nM and < 40 nM; high-valued: ≥ 40 nM

Field: example entries. Status: answers known.
# COMPOUND, TARGET, GROUP LABEL
records = [
    ("COc1ccc(Cl)c(S(=O)(=O)Nc2ccc(-c3nc(OCCCN)c4cn[nH]c4n3)cc2)c1 [Example 203]", "recombinant human SGK-1 enzyme (Homo sapiens, UniProt O00141)", "low-valued"),
    ("O=S(=O)(Nc1ccc(-c2nc(OC3CCC(O)CC3)c3cn[nH]c3n2)cc1F)c1cc(Cl)ccc1F (centres unmarked) [Example 440]", "recombinant human SGK-1 enzyme (Homo sapiens, UniProt O00141)", "low-valued"),
    ("O=S(=O)(Nc1ccc(-c2nc(C3CC3)c3cn[nH]c3n2)cc1)c1ccccc1F [Example 206]", "recombinant human SGK-1 enzyme (Homo sapiens, UniProt O00141)", "high-valued"),
]

Below: the item to evaluate.
Input: Just checking, what class would you give CCN1CCCC(Oc2nc(-c3ccc(NS(=O)(=O)c4cc(OC)ccc4F)cc3)nc3[nH]nc(C)c23)C1 (centres unmarked) [Example 424] here?
Output: mid-valued

----------
# pIC50 listing for each entry below
System: SGK-1 dependent phosphorylation of GSK3beta in U2OS cells
Assay: SGK-1 dependent phosphorylation of GSK3beta in U2OS cells overexpressing recombinant SGK-1 and GSK3beta
Format: cell-based, human
Details: U2OS cells, 6 h incubation, ratio of phosphorylated GSK3beta to total GSK3beta; read-out: IC50 values for inhibition of SGK-1 dependent phosphorylation of GSK3beta in U2OS cells
Interpret pIC50 as the negative base-10 log of the concentration measured in mol/L.

# COMPOUND, pIC50
records = [
    ("Nc1n[nH]c2nc(-c3ccc(NS(=O)(=O)c4cc(F)c(F)cc4F)cc3)ncc12", 6.19),
]

Input: Which pIC50 is reported with SGK-1 dependent phosphorylation of GSK3beta in U2OS cells for this entry: O=S(=O)(Nc1ccc(-c2nc(OCC3CNCCO3)c3cn[nH]c3n2)cc1)c1cc(F)ccc1F (stereo not shown) ?
Output: 7.04

Input: Query Cc1n[nH]c2nc(-c3ccc(NS(=O)(=O)c4cc(Cl)ccc4Cl)cc3)nc(OC3CCNCC3F)c12 (stereo not shown) next
Output: 7.24

Input: Cc1n[nH]c2nc(-c3ccc(NS(=O)(=O)c4cc(Cl)ccc4F)cc3)nc(OC3CCCNC3)c12 (stereo not shown) , same question.
Output: 7.35

----------
pIC50: recorded values
Molecular target: recombinant human SGK-1 enzyme (Homo sapiens, UniProt O00141)
Assay: Enzymatic activity assay: SGK-1 substrate peptide phosphorylation (Caliper lab-chip mobility shift)
Assay type: biochemical
Settings: peptide substrate 1 μM, ATP 10 μM, 60 min at 37° C., read-out: IC50 values for inhibition of SGK-1 enzymatic activity
Please keep in mind that pIC50 is minus log10 of the molar concentration; only the number is needed.

Worked examples follow.
# MOLECULE, NUMBER
records = [
    ("COc1ccc(F)c(S(=O)(=O)Nc2ccc(-c3nc(C4CC4)c4cn[nH]c4n3)cc2)c1", 8.82),
    ("COCCc1nc(-c2ccc(NS(=O)(=O)c3cc(OC)ccc3Cl)cc2)nc2[nH]nc(N)c12", 7.74),
    ("Cc1ccc(C#N)c(S(=O)(=O)Nc2ccc(-c3nc(C4CC4)c4cn[nH]c4n3)cc2)c1", 8.39),
    ("CC(C)COc1nc(-c2ccc(NS(=O)(=O)c3cccc(Cl)c3F)cc2)nc2[nH]nc(N)c12", 6.38),
    ("COc1ccc(C#N)c(S(=O)(=O)Nc2ccc(-c3nc(OC4CCC(O)CC4)c4c(C)n[nH]c4n3)cc2)c1 (stereo not drawn)", 7.89),
]

Input: Recorded pIC50 for O=S(=O)(Nc1ccc(-c2nc(OCC3CNCCO3)c3cn[nH]c3n2)cc1)c1cc(F)ccc1F (stereo not drawn) , please?
Output: 6.62

Input: And COc1ccc(Cl)c(S(=O)(=O)Nc2ccc(-c3nc(OC4CCNCC4F)c4c(C)n[nH]c4n3)cc2)c1 (stereo not drawn) ?
Output: 8.64

Input: How about this molecule: Cc1ccc(F)c(S(=O)(=O)Nc2ccc(-c3nc(OC4CCC(O)CC4)c4cn[nH]c4n3)cc2)c1 (stereo not drawn)
Output: 8.68

Input: Another molecule to look at: COc1ccc(Cl)c(S(=O)(=O)Nc2ccc(-c3nc(C)c4cn[nH]c4n3)cc2)c1
Output: 8.74

Input: Could you do the same for O=S(=O)(Nc1ccc(-c2nc(O[C@@H]3CCC[C@H]3O)c3cn[nH]c3n2)cc1)c1cc(Cl)ccc1F , please?
Output: 8.17

Input: Next up: Nc1n[nH]c2nc(-c3ccc(NS(=O)(=O)c4cc(F)ccc4F)cc3)ncc12
Output: 6.72

Input: Input O=S(=O)(Nc1ccc(-c2nc(O[C@H]3CCCC(O)C3)c3cn[nH]c3n2)cc1)c1cc(Cl)ccc1F (stereo partly drawn)
Output: 8.49

Input: // next record N#Cc1ccc(Cl)cc1S(=O)(=O)Nc1ccc(-c2nc(OC3CNC3)c3cn[nH]c3n2)cc1
Output: 7.68
